Target: human Tie2 (Homo sapiens, UniProt Q02763)
Construct: amino acids of the intracellular domain 776-1124
Sequence (Q02763 776-1124): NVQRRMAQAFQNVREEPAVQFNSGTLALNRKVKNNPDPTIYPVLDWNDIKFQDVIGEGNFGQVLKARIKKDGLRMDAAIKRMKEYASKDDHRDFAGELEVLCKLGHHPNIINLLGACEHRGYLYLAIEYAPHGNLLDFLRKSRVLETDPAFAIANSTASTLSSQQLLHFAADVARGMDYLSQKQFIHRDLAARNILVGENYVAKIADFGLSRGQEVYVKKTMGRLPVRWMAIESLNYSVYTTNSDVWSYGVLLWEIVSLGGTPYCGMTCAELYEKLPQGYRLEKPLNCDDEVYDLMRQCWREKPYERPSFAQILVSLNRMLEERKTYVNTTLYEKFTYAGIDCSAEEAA
Assay: test of phosphorylation of PLC with Tie2 (GST-Tie2)
Details: Table 1; unit inferred; read-out: Tie2 (concentration that inhibits 50% of the kinase activity)
Counter-ions that a name gives are not always drawn.
IC50 for assorted molecules
Property label: IC50 (nM)

COC(=O)c1n[nH]cc1NCc1cccc(NC(=O)Nc2cc(C(F)(F)F)ccc2F)c1 [Example 32, trifluoroacetate]; 1000
NC(=O)c1n[nH]cc1NCc1cccc(NC(=O)Nc2cc(F)cc(C(F)(F)F)c2)c1 [Example 7, trifluoroacetate]; 72.7
NC(=O)c1n[nH]cc1NCc1cccc(NC(=O)Nc2cc(C(F)(F)F)ccc2F)c1 [Example 2a, trifluoroacetate]; 20
COC(=O)c1cccc(NC(=O)Nc2cccc(CNc3c[nH]nc3C(N)=O)c2)c1 [Example 9, trifluoroacetate]; 4510
COc1cc(NC(=O)Nc2cccc(CNc3c[nH]nc3C(N)=O)c2)cc(OC)c1 [Example 13, trifluoroacetate]; 1460
